- targetSystem: panel of more than 300 wild-type and mutant kinases (313 kinase panel) (Homo sapiens)
- Sequence (Q9UL54 1-1235): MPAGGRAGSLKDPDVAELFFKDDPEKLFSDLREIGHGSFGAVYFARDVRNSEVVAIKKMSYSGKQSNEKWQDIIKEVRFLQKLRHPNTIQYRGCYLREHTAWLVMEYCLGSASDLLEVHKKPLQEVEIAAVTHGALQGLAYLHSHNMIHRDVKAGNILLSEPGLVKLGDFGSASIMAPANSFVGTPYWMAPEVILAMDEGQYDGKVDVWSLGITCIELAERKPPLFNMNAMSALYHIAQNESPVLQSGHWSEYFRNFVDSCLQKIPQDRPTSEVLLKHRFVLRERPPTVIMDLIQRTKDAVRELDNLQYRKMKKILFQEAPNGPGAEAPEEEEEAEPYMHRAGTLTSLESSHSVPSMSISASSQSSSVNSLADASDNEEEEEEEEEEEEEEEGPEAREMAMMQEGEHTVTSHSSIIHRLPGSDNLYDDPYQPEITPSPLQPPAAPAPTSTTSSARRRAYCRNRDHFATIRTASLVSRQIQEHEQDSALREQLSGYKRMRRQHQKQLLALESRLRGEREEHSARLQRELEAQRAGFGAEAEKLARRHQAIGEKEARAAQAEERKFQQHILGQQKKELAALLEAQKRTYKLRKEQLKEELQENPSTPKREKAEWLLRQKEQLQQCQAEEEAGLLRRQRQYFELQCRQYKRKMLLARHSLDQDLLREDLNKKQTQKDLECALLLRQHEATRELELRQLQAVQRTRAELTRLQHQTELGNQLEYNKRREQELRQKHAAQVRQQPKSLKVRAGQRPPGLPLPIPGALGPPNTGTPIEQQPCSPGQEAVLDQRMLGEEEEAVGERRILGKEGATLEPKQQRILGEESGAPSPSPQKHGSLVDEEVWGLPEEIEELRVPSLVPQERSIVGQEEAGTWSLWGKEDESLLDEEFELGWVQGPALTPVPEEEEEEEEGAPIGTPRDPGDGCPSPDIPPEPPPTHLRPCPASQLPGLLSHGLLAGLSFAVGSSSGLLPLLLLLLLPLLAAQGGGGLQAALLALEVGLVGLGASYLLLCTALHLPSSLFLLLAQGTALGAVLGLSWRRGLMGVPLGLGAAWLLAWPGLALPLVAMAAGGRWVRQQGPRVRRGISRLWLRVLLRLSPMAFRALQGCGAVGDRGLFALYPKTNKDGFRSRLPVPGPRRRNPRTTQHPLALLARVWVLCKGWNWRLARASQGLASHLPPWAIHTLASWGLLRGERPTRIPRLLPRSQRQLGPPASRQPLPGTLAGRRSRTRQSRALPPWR
- assayText: Kinase profiling in a biochemical assay panel (mobility shift assays and ELISA), %-inhibition at 1 μM; selectivity entropy
- assayContext: kinase TAOK2; 1 μM
metric: %-inhibition of TAOK2 (%)
All answers are understood in %, so give the number only.

Enquiry: Observed %-inhibition of TAOK2 on panel of more than 300 wild-type and mutant kinases (313 kinase panel) (Homo sapiens) for C[C@@H](Oc1cc(-c2cnn(C3CCNCC3)c2)cnc1N)c1c(Cl)ccc(F)c1Cl , please.
Return: 33

Enquiry: Observed %-inhibition of TAOK2 on panel of more than 300 wild-type and mutant kinases (313 kinase panel) (Homo sapiens) for COc1cc2nccc(Oc3ccc(NC(=O)C4(C(=O)Nc5ccc(F)cc5)CC4)cc3)c2cc1OC [cabozantinib] , please.
Return: 6

Enquiry: Observed %-inhibition of TAOK2 on panel of more than 300 wild-type and mutant kinases (313 kinase panel) (Homo sapiens) for CCCS(=O)(=O)Nc1ccc(F)c(C(=O)c2c[nH]c3ncc(-c4ccc(Cl)cc4)cc23)c1F , please.
Return: 5.35

Enquiry: Observed %-inhibition of TAOK2 on panel of more than 300 wild-type and mutant kinases (313 kinase panel) (Homo sapiens) for N#CC[C@H](C1CCCC1)n1cc(-c2ncnc3[nH]ccc23)cn1 , please.
Return: 35

Enquiry: Observed %-inhibition of TAOK2 on panel of more than 300 wild-type and mutant kinases (313 kinase panel) (Homo sapiens) for CS(=O)(=O)CCNCc1ccc(-c2ccc3ncnc(Nc4ccc(OCc5cccc(F)c5)c(Cl)c4)c3c2)o1 , please.
Return: -5.44

Enquiry: Observed %-inhibition of TAOK2 on panel of more than 300 wild-type and mutant kinases (313 kinase panel) (Homo sapiens) for COc1cc2c(Nc3ccc(Br)cc3F)ncnc2cc1OCC1CCN(C)CC1 , please.
Return: -3.51

Enquiry: Observed %-inhibition of TAOK2 on panel of more than 300 wild-type and mutant kinases (313 kinase panel) (Homo sapiens) for Cc1ccc(Nc2nccc(N(C)c3ccc4c(C)n(C)nc4c3)n2)cc1S(N)(=O)=O , please.
Return: 53

Enquiry: Observed %-inhibition of TAOK2 on panel of more than 300 wild-type and mutant kinases (313 kinase panel) (Homo sapiens) for CC(=O)Nc1cccc(-n2c(=O)n(C3CC3)c(=O)c3c(Nc4ccc(I)cc4F)n(C)c(=O)c(C)c32)c1 , please.
Return: -2.59

* * *

Please respond with reported %-inhibition of NPM1-ALK for every item in the list.
- Tested on: panel of more than 300 wild-type and mutant kinases (313 kinase panel)
- assayText: Kinase profiling in a biochemical assay panel (mobility shift assays and ELISA), %-inhibition at 1 μM; selectivity entropy
All answers are understood in %, so give the number only.

Enquiry: Observed %-inhibition of NPM1-ALK on panel of more than 300 wild-type and mutant kinases (313 kinase panel) for COc1cc2c(Nc3ccc(Br)cc3F)ncnc2cc1OCC1CCN(C)CC1 [vandetanib] , please.
Return: 28

Enquiry: Observed %-inhibition of NPM1-ALK on panel of more than 300 wild-type and mutant kinases (313 kinase panel) for Cc1ccc(Nc2nccc(N(C)c3ccc4c(C)n(C)nc4c3)n2)cc1S(N)(=O)=O [pazopanib] , please.
Return: 21

Enquiry: Observed %-inhibition of NPM1-ALK on panel of more than 300 wild-type and mutant kinases (313 kinase panel) for N#CC[C@H](C1CCCC1)n1cc(-c2ncnc3[nH]ccc23)cn1 [ruxolitinib] , please.
Return: 65

Enquiry: Observed %-inhibition of NPM1-ALK on panel of more than 300 wild-type and mutant kinases (313 kinase panel) for COc1cc(Nc2c(C#N)cnc3cc(OCCCN4CCN(C)CC4)c(OC)cc23)c(Cl)cc1Cl [bosutinib] , please.
Return: 66

Enquiry: Observed %-inhibition of NPM1-ALK on panel of more than 300 wild-type and mutant kinases (313 kinase panel) for C#Cc1cccc(Nc2ncnc3cc(OCCOC)c(OCCOC)cc23)c1 [erlotinib] , please.
Return: 19

Enquiry: Observed %-inhibition of NPM1-ALK on panel of more than 300 wild-type and mutant kinases (313 kinase panel) for Cc1cn(-c2cc(NC(=O)c3ccc(C)c(Nc4nccc(-c5cccnc5)n4)c3)cc(C(F)(F)F)c2)cn1 [nilotinib] , please.
Return: -64

Enquiry: Observed %-inhibition of NPM1-ALK on panel of more than 300 wild-type and mutant kinases (313 kinase panel) for CS(=O)(=O)CCNCc1ccc(-c2ccc3ncnc(Nc4ccc(OCc5cccc(F)c5)c(Cl)c4)c3c2)o1 [lapatinib] , please.
Return: -3.28

* * *

- targetSystem: panel of more than 300 wild-type and mutant kinases (313 kinase panel) (Homo sapiens)
- assayText: Kinase profiling in a biochemical assay panel (mobility shift assays and ELISA), %-inhibition at 1 μM; selectivity entropy
- assayContext: kinase RSK1; 1 μM
Please respond with reported %-inhibition of RSK1 for every item in the list.
Answer shape: numeric part, then the unit.

Enquiry: Reported %-inhibition of RSK1, compound CCCS(=O)(=O)Nc1ccc(F)c(C(=O)c2c[nH]c3ncc(-c4ccc(Cl)cc4)cc23)c1F : ____
Return: -1.32%

Enquiry: Reported %-inhibition of RSK1, compound C[C@@H](Oc1cc(-c2cnn(C3CCNCC3)c2)cnc1N)c1c(Cl)ccc(F)c1Cl : ____
Return: -5%

Enquiry: Reported %-inhibition of RSK1, compound CO[C@H]1C[C@@H]2CC[C@@H](C)[C@@](O)(O2)C(=O)C(=O)N2CCCC[C@H]2C(=O)O[C@H]([C@H](C)C[C@@H]2CC[C@@H](OC(=O)C(C)(CO)CO)[C@H](OC)C2)CC(=O)[C@H](C)/C=C(\C)[C@@H](O)[C@@H](OC)C(=O)[C@H](C)C[C@H](C)/C=C/C=C/C=C/1C : ____
Return: -6.45%

Enquiry: Reported %-inhibition of RSK1, compound CS(=O)(=O)CCNCc1ccc(-c2ccc3ncnc(Nc4ccc(OCc5cccc(F)c5)c(Cl)c4)c3c2)o1 : ____
Return: 2.59%

Enquiry: Reported %-inhibition of RSK1, compound COc1cc2nccc(Oc3ccc(NC(=O)C4(C(=O)Nc5ccc(F)cc5)CC4)cc3)c2cc1OC [cabozantinib] : ____
Return: -7.61%

Enquiry: Reported %-inhibition of RSK1, compound Cc1cn(-c2cc(NC(=O)c3ccc(C)c(Nc4nccc(-c5cccnc5)n4)c3)cc(C(F)(F)F)c2)cn1 : ____
Return: 22%
